- protocol summary: Octanol-water intrinsic distribution co-efficient, log D of the compound at 100 uM at pH 7.4 after 16 to 22 hrs by CAMDIS assay
- Format: physicochemical

- item smiles: "N#CC1(NC(=O)[C@H](Cc2ccc(OC(F)(F)F)c(Cl)c2)NC(=O)c2cnn(C3CC(F)(F)C3)n2)CC1"
  logD at 100 µM: 3.89
- item smiles: "N#CC1(NC(=O)[C@H](Cc2ccc(OC(F)(F)F)c(Cl)c2)NC(=O)c2cnn(C3CCC3)n2)CC1"
  logD at 100 µM: 3.88
- item smiles: "N#Cc1ccc(C[C@H](NC(=O)c2cnn(-c3ccc(F)cc3)n2)C(=O)NC2(C#N)CC2)cc1Cl"
  logD at 100 µM: 3.63
- item smiles: "N#CC1(NC(=O)[C@H](Cc2ccc(OC(F)(F)F)c(Cl)c2)NC(=O)c2cnn(-c3ccncc3)n2)CC1"
  logD at 100 µM: 3.69
- item smiles: "CC(C)C[C@H](NC(=O)c1cnn(-c2ccc(F)cc2)n1)C(=O)NC1(C#N)CC1"
  logD at 100 µM: 3.3

Hello, the source for this data is ChEMBL document CHEMBL4043300, in case you need it.
